- method notes: Solubility of the compound in aqueous buffer
- Assay type: physicochemical
metric: solubility

// known answers, use as guide
INSERT INTO results (structure_string, metric, recorded_result) VALUES
  ('O=C(N[C@@H]1CO[C@H]2[C@@H]1OC[C@H]2OCc1ccccc1)/C(=C/c1cccs1)NC(=O)c1ccccc1', 'solubility', 'Insoluble'),
  ('C[C@@H](O)[C@H](NC(=O)OC(C)(C)C)C(=O)N[C@H]1CO[C@H]2[C@@H]1OC[C@@H]2OCc1ccccc1', 'solubility', 'Insoluble'),
  ('CC(C)(C)OC(=O)N1CCC[C@H]1C(=O)N[C@H]1CO[C@H]2[C@@H]1OC[C@@H]2OCc1ccccc1', 'solubility', 'Insoluble'),
  ('COc1ccc(CO[C@H]2CO[C@H]3[C@@H]2OC[C@@H]3NC(=O)/C(=C/c2cccs2)NC(=O)c2ccccc2)cc1', 'solubility', 'Insoluble'),
  ('CC(C)(C)OC(=O)N[C@@H](CCCN/C(=N\C(=O)OCc1ccccc1)NC(=O)OCc1ccccc1)C(=O)N[C@H]1CO[C@H]2[C@@H]1OC[C@@H]2OCc1ccccc1', 'solubility', 'Insoluble');

Report solubility for CC(C)(C)OC(=O)N[C@@H](Cc1c[nH]c2ccccc12)C(=O)N[C@H]1CO[C@H]2[C@@H]1OC[C@@H]2OCc1ccccc1 Insoluble

# return recorded solubility for input O=C(N[C@H]1CO[C@H]2[C@@H]1OC[C@@H]2OCc1ccccc1)/C(=C/c1ccco1)NC(=O)c1ccccc1 Soluble

Fill in reported solubility for this entry: O=C(N[C@H]1CO[C@H]2[C@@H]1OC[C@@H]2OCc1ccccc1)/C(=C/c1cc2ccccc2s1)NC(=O)c1ccccc1 Soluble
